- subject_of_test: PI3Kα (p110α/p85α)(h) (Homo sapiens)
- Sequence (P42336 whole entry): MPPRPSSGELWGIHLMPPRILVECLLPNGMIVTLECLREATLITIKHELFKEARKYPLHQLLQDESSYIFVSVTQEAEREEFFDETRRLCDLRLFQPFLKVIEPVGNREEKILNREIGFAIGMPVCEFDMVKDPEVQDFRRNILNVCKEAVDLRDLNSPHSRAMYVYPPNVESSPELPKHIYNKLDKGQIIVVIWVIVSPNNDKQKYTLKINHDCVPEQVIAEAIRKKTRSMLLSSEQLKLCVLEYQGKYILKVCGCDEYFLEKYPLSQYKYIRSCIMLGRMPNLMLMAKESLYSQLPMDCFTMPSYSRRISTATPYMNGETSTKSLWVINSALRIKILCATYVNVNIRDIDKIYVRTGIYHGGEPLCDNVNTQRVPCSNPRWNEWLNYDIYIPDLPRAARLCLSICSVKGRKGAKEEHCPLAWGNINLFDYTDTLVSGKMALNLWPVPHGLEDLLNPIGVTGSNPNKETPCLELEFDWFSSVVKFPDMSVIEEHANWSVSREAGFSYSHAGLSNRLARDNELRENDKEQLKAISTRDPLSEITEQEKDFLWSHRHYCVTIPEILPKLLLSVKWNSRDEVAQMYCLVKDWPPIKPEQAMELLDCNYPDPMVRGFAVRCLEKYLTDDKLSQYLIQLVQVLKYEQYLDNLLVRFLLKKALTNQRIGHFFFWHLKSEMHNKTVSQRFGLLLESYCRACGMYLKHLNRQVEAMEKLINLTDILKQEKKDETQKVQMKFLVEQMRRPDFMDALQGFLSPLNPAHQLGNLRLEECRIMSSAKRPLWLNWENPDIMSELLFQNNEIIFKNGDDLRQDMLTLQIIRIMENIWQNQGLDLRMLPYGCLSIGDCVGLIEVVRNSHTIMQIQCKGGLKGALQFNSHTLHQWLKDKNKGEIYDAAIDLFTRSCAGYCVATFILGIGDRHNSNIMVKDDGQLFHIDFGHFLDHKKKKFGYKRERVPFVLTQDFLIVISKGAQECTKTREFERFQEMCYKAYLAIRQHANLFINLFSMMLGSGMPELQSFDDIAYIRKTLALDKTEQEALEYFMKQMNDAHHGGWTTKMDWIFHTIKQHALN
- Sequence (P27986 whole entry partner): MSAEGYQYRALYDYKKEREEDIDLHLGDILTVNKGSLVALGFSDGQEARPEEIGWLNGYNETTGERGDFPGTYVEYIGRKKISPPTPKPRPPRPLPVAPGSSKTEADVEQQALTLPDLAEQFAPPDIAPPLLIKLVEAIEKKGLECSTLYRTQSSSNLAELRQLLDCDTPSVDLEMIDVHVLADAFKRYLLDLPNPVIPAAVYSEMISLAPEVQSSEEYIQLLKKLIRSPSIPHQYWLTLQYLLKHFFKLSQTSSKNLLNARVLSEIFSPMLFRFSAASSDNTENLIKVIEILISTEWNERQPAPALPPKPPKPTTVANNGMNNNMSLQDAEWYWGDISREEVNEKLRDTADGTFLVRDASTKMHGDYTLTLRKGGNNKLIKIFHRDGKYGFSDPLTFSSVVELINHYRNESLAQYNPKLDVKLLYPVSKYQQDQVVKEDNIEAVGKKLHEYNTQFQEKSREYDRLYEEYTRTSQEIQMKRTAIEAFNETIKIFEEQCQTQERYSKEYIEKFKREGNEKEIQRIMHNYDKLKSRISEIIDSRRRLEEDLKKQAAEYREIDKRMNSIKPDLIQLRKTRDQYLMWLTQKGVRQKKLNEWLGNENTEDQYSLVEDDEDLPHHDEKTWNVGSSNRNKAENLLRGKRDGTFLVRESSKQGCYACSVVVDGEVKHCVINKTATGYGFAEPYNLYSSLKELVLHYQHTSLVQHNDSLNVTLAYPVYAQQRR
- protocol_description: PI3K-HTRF in vitro enzyme assay, PI3Kα
- conditions_used: enzyme 0.1 μg/ml
pIC50: −log10 of the molar value.
test_readout: pIC50

Field: example entries. Status: answers known.
C[C@H](Nc1ncnc2cccc(F)c12)c1cc2cccc(-c3cnc(N)nc3)c2c(=O)n1-c1ccccc1 [Example 43]; 5.57
CC[C@H](Nc1ncnc2ccc(C#N)cc12)c1cc2cccc(-c3cnc(OC)nc3)c2c(=O)n1-c1ccccc1 [Example 40]; 6.04

a. O=c1c2c(-c3cncnc3)cccc2nc([C@@H](Nc2ncnc3cccc(F)c23)C2CC2)n1-c1ccccc1 [Example 30]
b. CC(C)[C@H](Nc1ncnc2ccc(C#N)cc12)c1nc2cccc(-c3cnc(N)nc3)c2c(=O)n1-c1ccccc1 [Example 13]
Hi! Which is lower in terms of pIC50, the first one a or the second one b ? Label of pick, please.
a
(a: 5.28, b: 5.83)
